Recorded Degradation assay (Degradation %) 1 μM, one value per entry.
target: UniProt:Q8NB16; experiment: MLKL degradation assay in HepG2 cell line (western blot); type: cell-based; design: endogenous in cells; host or cells: HepG2 or HaCaT; conditions: compound 1 μM; cell line not given
Sequence (Q8NB16 whole entry): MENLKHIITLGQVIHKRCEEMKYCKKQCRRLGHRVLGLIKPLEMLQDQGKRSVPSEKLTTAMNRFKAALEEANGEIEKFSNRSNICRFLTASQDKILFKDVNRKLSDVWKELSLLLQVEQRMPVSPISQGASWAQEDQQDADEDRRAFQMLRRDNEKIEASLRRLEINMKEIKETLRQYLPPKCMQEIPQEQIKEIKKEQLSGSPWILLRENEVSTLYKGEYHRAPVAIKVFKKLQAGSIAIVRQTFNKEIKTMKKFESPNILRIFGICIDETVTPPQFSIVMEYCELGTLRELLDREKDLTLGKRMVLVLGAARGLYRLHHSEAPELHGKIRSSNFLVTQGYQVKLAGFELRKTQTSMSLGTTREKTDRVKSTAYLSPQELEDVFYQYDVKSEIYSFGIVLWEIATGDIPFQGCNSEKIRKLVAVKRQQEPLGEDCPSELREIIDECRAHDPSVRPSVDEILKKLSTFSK
Please state the figure in %; there is no need to write the unit.

compound: Nc1ncc(-c2cnn(C3CCN(CCCCCCNC(=O)C4CN(c5cccc6c5C(=O)N(C5CCC(=O)NC5=O)C6=O)C4)CC3)c2)nc1C(=O)O[C@@H](C(=O)Nc1ccc(F)cc1)c1ccccc1 (some centres unmarked)
observation_type: Degradation assay (Degradation %) 1 μM
numeric_value: 24.54
--
compound: Nc1ncc(-c2cnn(C3CCN(CCCN4CCN(C(=O)C5CCN(c6cccc7c6C(=O)N(C6CCC(=O)NC6=O)C7=O)CC5)CC4)CC3)c2)nc1C(=O)OC(C(=O)Nc1ccc(F)cc1)c1ccccc1 (centres unmarked)
observation_type: Degradation assay (Degradation %) 1 μM
numeric_value: 53.9

So what's the measured Degradation assay (Degradation %) 1 μM for this one? Nc1ncc(-c2cnn(C3CCN(CCC4CCN(C(=O)COc5ccc6nnn(C7CCC(=O)NC7=O)c(=O)c6c5)CC4)CC3)c2)nc1C(=O)OC(C(=O)Nc1ccc(F)cc1)c1ccccc1 (centres unmarked)
76.09

Quick one: Degradation assay (Degradation %) 1 μM for Nc1ncc(-c2cnn(C3CCN(C(=O)CC4CCN(c5cccc6c5C(=O)N(C5CCC(=O)NC5=O)C6=O)CC4)CC3)c2)nc1C(=O)O[C@@H](C(=O)Nc1ccc(F)cc1)c1ccccc1 (some centres unmarked) ?
31.43

// query Degradation assay (Degradation %) 1 μM value for entry Nc1ncc(-c2cnn(C3CCN(CCCN4CCN(C(=O)COc5cccc6c5C(=O)N(C5CCC(=O)NC5=O)C6=O)CC4)CC3)c2)nc1C(=O)OC(C(=O)Nc1ccc(F)cc1)c1ccccc1 (centres unmarked)
57.14
